Tested on: SW-620 colon
measurement-protocol: NCI-60 one-dose screen, 48 h (100 = growth as untreated, 0 = no growth, -100 = all killed)
details: 10 µM
The panel holds about 83,000 compounds, 20% with a hit somewhere; the sample as a whole holds those more often.
Parameter growth: see the listing below.
measured-property: growth (%)

INSERT INTO measurements (compound, units_symbol, value) VALUES
  ('COc1ccc(-c2nn(-c3cccc(Cl)c3)cc2-c2nc(N)[nH]c(=O)c2C#N)cc1', '%', 83.2),
  ('O=C1c2ccccc2-c2c1c1cccnc1c(=O)n2C[C@H](O)CO', '%', 49.9),
  ('CC(C1=C(CN(C(=O)Cc2cn(-c3ccccc3)nc2-c2ccc(Cl)cc2)C(C)C)Cc2ccccc21)c1ccccn1 (centres undefined)', '%', 75.8),
  ('CC(C)=CCC/C(C)=C/CC/C(C)=C/CC/C=C(\C)CC/C=C(\C)CCC(=O)Nc1ccn(C2OC(CO)C(O)C2(F)F)c(=O)n1 (centres undefined)', '%', 33.6),
  ('CN(C)CCOc1cccc(-c2nc3sccn3c2-c2ccnc(S(C)(=O)=O)n2)c1', '%', 91.7),
  ('COc1cc(-c2nn(-c3cccc(NC(=O)NCCNS(=O)(=O)c4ccc(Cl)cc4)c3)cc2-c2ccncc2)ccc1Cl', '%', 18.9),
  ('N#Cc1ccc(C(=O)CSc2nccc(Nc3ccc(C(=O)O)cc3)n2)cc1', '%', 104),
  ('COc1ccc2c(c1)C(=O)/C(=C/c1ccc([N+](=O)[O-])o1)O2', '%', -60.4),
  ('COc1cc2c3c(n([C@H]4CCOC4)c(=O)c2cc1OC)-c1cc2c(cc1C3=O)OCO2', '%', 46.2);

###

Test system: SF-539 CNS
measurement-protocol: NCI-60 one-dose screen, 48 h
details: 10 µM
The panel holds about 83,000 compounds, 20% with a hit somewhere; the sample as a whole holds those more often. Calls of active or inactive are those of the source. How the source made its calls: active means growth percent below 10; inactive means the rest.
Outcomes: YES for active, NO for inactive

INSERT INTO measurements (chemical_structure, target_or_system, answer_label) VALUES
  ('CSc1nc(S(C)(=O)=O)nc2[nH]c(=O)[nH]c12', 'SF-539 CNS', 'NO'),
  ('COc1cc2c3c(n(C4CCN(C)CC4)c(=O)c2cc1OC)-c1cc2c(cc1C3=O)OCO2', 'SF-539 CNS', 'YES'),
  ('O=C1c2ccccc2C(=O)c2c1ccc1c(=O)n(-c3ccccc3C(F)(F)F)nnc21', 'SF-539 CNS', 'YES'),
  ('CC(=O)Nc1ccc(S(=O)(=O)N/N=C(\C)c2ccc(C)cc2C)cc1', 'SF-539 CNS', 'NO'),
  ('CCn1cc(CNc2ccc(C(=O)Nc3ccc4ccccc4c3)cc2)c(C)n1', 'SF-539 CNS', 'NO');

###

System: HCC-2998 colon
measurement-protocol: NCI-60 one-dose screen, 48 h (100 = growth as untreated, 0 = no growth, -100 = all killed)
details: 10 µM
Compounds without any hit were thinned out: in the full panel of roughly 83,000, 20% have a hit.
Rule: measured growth below 80% gets 1; anything equal to or greater than 80% gets 0.

INSERT INTO assay_data (compound, answer_label) VALUES
  ('COc1cc2cc(Oc3ccc(NC(=O)Nc4ccc(C(F)(F)F)cc4)cc3)c(C)nc2cc1OC', 0),
  ('COc1ccc(/C=C2\CCCC3=C2NC(N)=NC3c2ccc(OC)c(OC)c2)cc1OC (centres undefined)', 0),
  ('CC(=O)[C@H]1CC[C@]2(C)[C@@H]1CC[C@@H]1[C@@]3(C)CC(CCC#N)(CCC#N)C(=O)C(C)(C)[C@@H]3CC[C@]12C', 0),
  ('COc1ccc(CCN2CCC(Nc3nc4ccccc4n3Cc3ccc(F)cc3)CC2)cc1', 1),
  ('COc1ccc(-c2cc(-c3ccc(Cl)cc3)nc(SCCCC(=O)NO)n2)cc1OC', 1),
  ('C#CCOc1c(OC)cc(C(=O)/C(C)=C/c2cccc(N=[N+]=[N-])c2)cc1OC', 1),
  ('CCN(CC)CCCC(C)N=C(C1=C(C(=NC(C)CCCN(CC)CC)c2cccc(OC)c2)C(=O)NC1=O)c1cccc(OC)c1 (centres undefined)', 1),
  ('COc1ccc2cc(-c3nc4ccccc4s3)c(Cl)nc2c1OC', 0),
  ('CC(C)(C)c1ccc(S(=O)(=O)N[C@H]2CC[C@H]3[C@@H]4CCc5cc(OS(=O)(=O)O)ccc5[C@H]4CC[C@]23C)cc1', 1),
  ('COc1cc(C2C(C#N)=C(N)Oc3cc(O)ccc32)cc(OC)c1OC (centres undefined)', 1),
  ('CN1CCN(c2cc3c(cc2F)c(=O)c(C(=O)O)cn3-c2ccc(F)cc2)CC1', 0),
  ('Fc1ccc2[nH]cc(-c3nc(-c4ccsc4)cs3)c2c1', 0),
  ('COc1ccc(C(=O)N/N=C/c2cc(C(F)(F)F)ccc2Cl)cc1', 0),
  ('NC(CSC(c1ccccc1)(c1ccccc1)c1cccc2ccccc12)C(=O)O (centres undefined)', 0),
  ('CCOC(=O)C1=CSC2=NC3=C(CCC/C3=C\c3cc(OC)c(OC)c(OC)c3)C(c3cc(OC)c(OC)c(OC)c3)N12 (centres undefined)', 1),
  ('COc1ccc2c(c1)C(=O)/C(=C/c1ncc([N+](=O)[O-])n1C)O2', 1),
  ('CC(=O)Nc1ccc2c(c1)C(=O)c1cccc(C(=O)O)c1-2', 0),
  ('CN(C)c1ccc(/C=N/NC(=O)c2cccc3ccccc23)c(Cl)c1', 1);

###

Tested on: SK-MEL-5 melanoma
measurement-protocol: NCI-60 one-dose screen, 48 h
details: 10 µM
This is part of a sample that, as a whole, favours compounds with a hit. Of some 83,000 tested, about 20% had one in any assay. Activity calls are given as the source filed them. Rule for the calls: active = growth percent below 10; inactive = the rest.
Outcomes: T for active, F for inactive

INSERT INTO measurements (compound, target_or_system, answer_label) VALUES
  ('Cc1ccc(NC(=O)N2CCCCC2)cc1[N+](=O)[O-]', 'SK-MEL-5 melanoma', 'F'),
  ('COc1ccc(-c2nn(-c3cccc(Cl)c3)cc2-c2cc(-c3ccccc3)nc(N)n2)cc1', 'SK-MEL-5 melanoma', 'F'),
  ('Cc1[nH]c2ccccc2c1/C=N/Nc1ncnc2sc3c(c12)CCN(CC(=O)OC(C)(C)C)C3', 'SK-MEL-5 melanoma', 'F'),
  ('Cc1cc(NC(=O)c2ccc(C)c(Nc3nccc(-c4cccnc4)n3)c2)cc(-n2cnc(C)c2)c1', 'SK-MEL-5 melanoma', 'F'),
  ('CC(C)(C)OC(=O)N1CCc2c(sc3ncnc(N/N=C/c4cccc5ccccc45)c23)C1', 'SK-MEL-5 melanoma', 'T'),
  ('O=C1c2ccccc2C(=O)c2c1ccc(C(Br)Br)c2[N+](=O)[O-]', 'SK-MEL-5 melanoma', 'F'),
  ('COc1cc2ncnc(NC3CCC(O)CC3)c2cc1OC (centres undefined)', 'SK-MEL-5 melanoma', 'F'),
  ('COc1cc(-c2nn(-c3ccc(NC(=O)NCCCNC(=O)c4ccccc4)cc3)cc2-c2ccncc2)ccc1Cl', 'SK-MEL-5 melanoma', 'T'),
  ('O=C(CCn1cnc2c(cc(-c3ccccc3)n2-c2ccccc2)c1=O)Nc1ccc(F)cc1', 'SK-MEL-5 melanoma', 'F');

###

System: ACHN renal
measurement-protocol: NCI-60 one-dose screen, 48 h
details: 10 µM
The panel holds about 83,000 compounds, 20% with a hit somewhere; the sample as a whole holds those more often. The source made the active and inactive calls. Rule for the calls: active = growth percent below 10; inactive = the rest.
Outcomes: TRUE = active, FALSE = inactive

INSERT INTO measurements (molecule, answer_label) VALUES
  ('Cc1[nH]c2ccccc2c1/C=N/Nc1ncnc2sc3c(c12)CCN(CC(=O)OC(C)(C)C)C3', 'FALSE'),
  ('Cc1c2c[n+](C(C)C)ccc2c(C)c2c1[nH]c1ccccc12', 'FALSE'),
  ('COc1ccc(/C(C#N)=C/c2cccc(OC)c2OC)cc1', 'FALSE'),
  ('S=C(SSC(=S)N(c1ccccc1)c1ccccc1)N(c1ccccc1)c1ccccc1', 'FALSE'),
  ('CCN(CC)CCCC(C)Nc1c2ccc(Cl)cc2nc2ccc(OC)cc12 (stereo unspecified)', 'FALSE'),
  ('O=C(CNc1nnc(-c2cccnc2SCc2ccccc2)s1)Nc1nc(Cl)cc(Cl)n1', 'FALSE'),
  ('NS(=O)(=O)c1ccc(Br)cc1', 'FALSE'),
  ('O=C(CN(C1CCCCC1)C1CCCCC1)Nc1ccc(S(=O)(=O)c2ccc(NC(=O)CN(C3CCCCC3)C3CCCCC3)cc2)cc1', 'TRUE'),
  ('O=C(CCCSc1nc(-c2ccccc2)cc(-c2ccc(Cl)cc2)n1)NO', 'TRUE'),
  ('Fc1ccc2[nH]cc(-c3nc(-c4ccsc4)cs3)c2c1', 'FALSE'),
  ('COc1ccc(/C=C2\CCCC3=C2NC(N)=NC3c2ccc(OC)c(OC)c2)cc1OC (stereo unspecified)', 'FALSE');
